Taken from paper PMC10782225.

For each entry below, report its koff value.
# System name: human α7β2‐nAChR (Homo sapiens, UniProt P17787+P36544)
# Construct: expressed in transfected cells; host or cells: Xenopus laevis oocytes, cRNA injection
# Sequence (P36544 23-502 limits assumed): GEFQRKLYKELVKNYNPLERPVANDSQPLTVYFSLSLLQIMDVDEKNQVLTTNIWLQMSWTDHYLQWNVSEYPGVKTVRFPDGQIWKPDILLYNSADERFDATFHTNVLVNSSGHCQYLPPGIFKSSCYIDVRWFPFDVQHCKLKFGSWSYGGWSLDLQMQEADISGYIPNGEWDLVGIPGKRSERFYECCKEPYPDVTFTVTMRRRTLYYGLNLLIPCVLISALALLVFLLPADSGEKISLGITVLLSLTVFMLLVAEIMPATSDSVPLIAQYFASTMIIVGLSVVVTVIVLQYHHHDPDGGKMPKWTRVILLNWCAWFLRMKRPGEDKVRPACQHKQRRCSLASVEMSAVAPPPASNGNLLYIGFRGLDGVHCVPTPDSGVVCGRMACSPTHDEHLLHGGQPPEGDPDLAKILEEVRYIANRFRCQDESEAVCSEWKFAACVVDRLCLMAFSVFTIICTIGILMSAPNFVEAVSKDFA
# Sequence (P17787 26-502 limits assumed): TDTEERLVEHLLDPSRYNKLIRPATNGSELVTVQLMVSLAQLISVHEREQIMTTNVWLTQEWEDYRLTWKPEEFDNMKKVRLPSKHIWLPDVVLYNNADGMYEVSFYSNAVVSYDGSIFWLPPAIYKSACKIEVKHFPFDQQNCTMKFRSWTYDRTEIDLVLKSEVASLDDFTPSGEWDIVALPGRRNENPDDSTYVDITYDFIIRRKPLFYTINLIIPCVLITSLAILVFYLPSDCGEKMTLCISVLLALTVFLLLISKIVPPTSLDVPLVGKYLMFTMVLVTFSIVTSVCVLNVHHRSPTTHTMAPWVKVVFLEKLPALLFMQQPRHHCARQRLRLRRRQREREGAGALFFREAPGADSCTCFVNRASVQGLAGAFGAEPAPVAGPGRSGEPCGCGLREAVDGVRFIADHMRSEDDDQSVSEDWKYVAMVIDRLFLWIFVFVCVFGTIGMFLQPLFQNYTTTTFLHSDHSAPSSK
# Assay comment: cell-based
# Test parameters: read-out: k off α7β2; SEM
One number for each entry, in s⁻¹.

[[record]]
compound = "CC(C)C[C@@H]1NC(=O)[C@H](Cc2ccccc2)NC(=O)[C@@H]2CSSC[C@H](NC(=O)CN)C(=O)N[C@@H](CSSC[C@@H](C(N)=O)NC(=O)[C@H](CC(=O)O)NC(=O)[C@H](CC(=O)O)NC(=O)[C@@H]3CCCN3C(=O)[C@H](CC(N)=O)NC(=O)[C@H](CC(N)=O)NC1=O)C(=O)N[C@@H](CO)C(=O)N[C@@H](Cc1c[nH]cn1)C(=O)N1CCC[C@H]1C(=O)N1CCC[C@H]1C(=O)N2 [[Y15D]]"
metric = "koff"
measurement_units = "s⁻¹"
recorded_result = 0.000298

[[record]]
compound = "NCC(=O)N[C@H]1CSSC[C@@H]2NC(=O)[C@@H]3CCCN3C(=O)[C@@H]3CCCN3C(=O)[C@H](Cc3c[nH]cn3)NC(=O)[C@H](CO)NC(=O)[C@H](CSSC[C@@H](C(N)=O)NC(=O)[C@H](Cc3ccc(O)cc3)NC(=O)[C@H](CC(=O)O)NC(=O)[C@@H]3CCCN3C(=O)[C@H](CC(N)=O)NC(=O)[C@H](CC(N)=O)NC(=O)[C@H](Cc3ccc(O)cc3)NC(=O)[C@H](Cc3ccccc3)NC2=O)NC1=O [[L10Y]]"
metric = "koff"
measurement_units = "s⁻¹"
recorded_result = 0.000462


Field: next compound
Q: Need koff of CC(C)C[C@@H]1NC(=O)[C@H](Cc2ccccc2)NC(=O)[C@@H]2CSSC[C@H](NC(=O)CN)C(=O)N[C@@H](CSSC[C@@H](C(N)=O)NC(=O)[C@H](Cc3ccc(O)cc3)NC(=O)[C@H](CCC(=O)O)NC(=O)[C@@H]3CCCN3C(=O)[C@H](CC(N)=O)NC(=O)[C@H](CC(N)=O)NC1=O)C(=O)N[C@@H](CO)C(=O)N[C@@H](Cc1c[nH]cn1)C(=O)N1CCC[C@H]1C(=O)N1CCC[C@H]1C(=O)N2 [[D14E]] , thanks.
A: 6e-05

* * *

# System name: human α7β2‐nAChR (Homo sapiens, UniProt P17787+P36544)
# Construct: expressed in transfected cells; host or cells: Xenopus laevis oocytes, cRNA injection
# Assay comment: cell-based
# Test parameters: read-out: k on α7β2; SEM
Metric: kon (M⁻¹ s⁻¹)
One number for each entry, in M⁻¹ s⁻¹.

[[record]]
compound = "CC(C)C[C@@H]1NC(=O)[C@H](Cc2ccccc2)NC(=O)[C@@H]2CSSC[C@H](NC(=O)CN)C(=O)N[C@@H](CSSC[C@@H](C(N)=O)NC(=O)[C@H](CC(=O)O)NC(=O)[C@H](CC(=O)O)NC(=O)[C@@H]3CCCN3C(=O)[C@H](CC(N)=O)NC(=O)[C@H](CC(N)=O)NC1=O)C(=O)N[C@@H](CO)C(=O)N[C@@H](Cc1c[nH]cn1)C(=O)N1CCC[C@H]1C(=O)N1CCC[C@H]1C(=O)N2 [[Y15D]]"
recorded_result = 43300

[[record]]
compound = "CC(C)C[C@@H]1NC(=O)[C@H](Cc2ccccc2)NC(=O)[C@@H]2CSSC[C@H](NC(=O)CN)C(=O)N[C@@H](CSSC[C@@H](C(N)=O)NC(=O)[C@H](Cc3ccc(O)cc3)NC(=O)[C@H](CC(=O)O)NC(=O)[C@@H]3CCCN3C(=O)[C@H](CC(N)=O)NC(=O)[C@H](CC(N)=O)NC1=O)C(=O)N[C@@H](CCCNC(=N)N)C(=O)N[C@@H](Cc1c[nH]cn1)C(=O)N1CCC[C@H]1C(=O)N1CCC[C@H]1C(=O)N2 [[S4R]]"
recorded_result = 112000

[[record]]
compound = "CC(C)C[C@@H]1NC(=O)[C@H](Cc2ccccc2)NC(=O)[C@@H]2CSSC[C@H](NC(=O)CN)C(=O)N[C@@H](CSSC[C@@H](C(N)=O)NC(=O)[C@H](Cc3ccc(O)cc3)NC(=O)[C@H](CCC(=O)O)NC(=O)[C@@H]3CCCN3C(=O)[C@H](CC(N)=O)NC(=O)[C@H](CC(N)=O)NC1=O)C(=O)N[C@@H](CO)C(=O)N[C@@H](Cc1c[nH]cn1)C(=O)N1CCC[C@H]1C(=O)N1CCC[C@H]1C(=O)N2 [[D14E]]"
recorded_result = 49500


Field: next compound
Q: Need kon of CC(C)C[C@@H]1NC(=O)[C@H](Cc2ccccc2)NC(=O)[C@@H]2CSSC[C@H](NC(=O)CN)C(=O)N[C@@H](CSSC[C@@H](C(N)=O)NC(=O)[C@H](Cc3ccc(O)cc3)NC(=O)[C@H](CC(=O)O)NC(=O)[C@@H]3CCCN3C(=O)[C@H](Cc3c[nH]cn3)NC(=O)[C@H](CC(N)=O)NC1=O)C(=O)N[C@@H](CO)C(=O)N[C@@H](Cc1c[nH]cn1)C(=O)N1CCC[C@H]1C(=O)N1CCC[C@H]1C(=O)N2 [[N12H]] , thanks.
A: 24500
